Quick record: log10 IC50, Dihydroorotate dehydrogenase (quinone), mitochondrial (Rattus norvegicus, UniProt Q63707).
# log10 transformed; quantity=IC50; unit=nM

Previously resolved entries follow.
{"columns": ["smiles-representation", "log10 IC50"],
 "data": [
  ["N#C/C(C(=O)Nc1ccc(Cl)cn1)=C(/O)C1CC1", 1.88],
  ["N#C/C(C(=O)Nc1ccc(N)cc1)=C(/O)C1CC1", 4.34]
]}

In: Form field: reported log10 IC50 of "N#C/C(C(=O)Nc1ccc(Br)cc1)=C(/O)C1CC1"
Out: 1.90

In: Requested read-out: log10 IC50. Entry: "N#C/C(C(=O)Nc1ccc(-c2ccccc2)cc1)=C(/O)C1CC1"
Out: 3.17

In: log10 IC50 for "C=C/C(O)=C(\C#N)C(=O)Nc1ccc(C(F)(F)F)cc1" ?
Out: 1.36

In: Would you kindly share the measured log10 IC50 for "Cc1cc(NC(=O)/C(C#N)=C(\O)C2CC2)ccc1C(F)(F)C(F)(F)F" ?
Out: 1.04

In: What does the data say about its log10 IC50? Entry: "N#C/C(C(=O)Nc1ccc(CCc2ccccc2)cc1)=C(/O)C1CC1"
Out: 2.14

In: For the compound "N#C/C(C(=O)Nc1ccc(C(F)(F)F)cc1)=C(/O)C1CCC1" , what log10 IC50 is on record?
Out: 2.45
